pIC50: −log10 of the molar value.
Collected from the literature: pIC50 of various compounds toward Serine protease 1 (Homo sapiens, UniProt P07477).
Outcome: 1 (yes) for pIC50 of at least 6; 0 (no) for anything lower.

In [3]: df
Out[3]:
                                    compound    group
 0  O=C(Nc1ccc(Cl)cc1C(=O)Nc1ccc(Cl)cn1)c1ccc(C[n+]2ccccc2)cc1   0 (no)
 1  CC(=N)N(C)CCN(C)Cc1ccc(C(=O)Nc2ccc(Cl)cc2C(=O)Nc2ccc(Cl)cn2)cc1   0 (no)
 2  N=C(N)N1CCCC(C[C@H](NC(=O)CN2C(=O)CN(CCCc3ccc(Cl)cc3)C(=O)[C@H]2Cc2ccccc2)C(=O)c2nccs2)C1 (some centres not stated)   0 (no)
 3  COc1ccc2ccc(S(=O)(=O)NC(Cc3cc4c(N)nccc4s3)C(=O)N3CCC(C)CC3)cc2c1 (configuration not stated)   0 (no)
 4  N=C(N)N1CCC[C@H](NC(=O)CN2CCC[C@@](N)(Cc3ccccc3)C2=O)[C@@H]1O   0 (no)
 5  COc1ccc2ccc(S(=O)(=O)NC(Cc3ccc4ccnc(N)c4c3)C(=O)N3CCC(C)CC3)cc2c1 (configuration not stated)   0 (no)
 6  Cc1cc(C(=O)Nc2ccc(-c3ccccc3S(N)(=O)=O)cc2)n(-c2cc3ccccc3cc2C(=N)N(C)C)n1   0 (no)
 7  CNC(=O)[C@@H]1C[C@H](N2CCc3c(cccc3OCCc3ccccc3)C2)CN1C(=O)c1ccc(CN)c(OC)c1  1 (yes)
 8  N=C(N)NCCC[C@H](NC(=O)[C@@H]1CC[C@H]2CN(C(=O)CCc3ccccc3)CC(=O)N21)C(=O)c1nccs1  1 (yes)
 9  C[C@H]1C(=O)N(CCCc2ccccc2)CC(=O)N1CC(=O)N[C@@H](C[C@@H]1CCCN(C(=N)N)C1)C(=O)c1nccs1   0 (no)
10  CC1CCCC(C)N1CCCCCN1C(=O)C(c2ccc(C(=N)N)cc2)Oc2ccccc21 (configuration not stated)   0 (no)
11  N=C(N)N1CCC(C[C@@H](NS(=O)(=O)Cc2ccccc2C(=O)O)C(=O)NCC(=O)N[C@H]2CCCN(C(=N)N)C2O)CC1 (some centres not stated)  1 (yes)
12  Cc1cc(C(=O)Nc2ccc(-c3ccccc3S(N)(=O)=O)cc2)n(-c2cc3ccccc3cc2C(N)=O)n1   0 (no)
13  COC(=O)c1ccccc1CS(=O)(=O)N[C@H](CC1CCN(C(=N)N)CC1)C(=O)NCC(=O)N[C@H]1CCCN(C(=N)N)C1O (some centres not stated)  1 (yes)
14      N#Cc1cccc(OC(=O)c2ccc(NC(=N)N)cc2)c1  1 (yes)
15  C=CCN(CC(=O)O)C(=O)/C(C)=C/c1ccc(C(=O)Oc2ccc(C(=N)N)cc2)cc1.CS(=O)(=O)O  1 (yes)

###

Collected from the literature: IC50 of various compounds toward Serine protease 1 (Homo sapiens, UniProt P07477).
One threshold, 200 nM, splits the recorded IC50 values: lower ones are YES, equal or higher ones are NO.

>>> df
                                    compound  group
 0  N=C(N)N1CCC[C@H](NC(=O)CN2CC[C@@](N)(Cc3ccccc3)C2=O)C1O (some centres not stated)     NO
 1  COC(=O)NC1(Cc2ccccc2)CCCCN(CC(=O)N[C@H]2CCCN(C(=N)N)C2O)C1=O (some centres not stated)     NO
 2  CN(C)NCc1ccc(C(=O)Nc2ccc(Cl)cc2C(=O)Nc2ccc(Cl)cn2)cc1     NO
 3  CN[C@@H](C(=O)N1CCC[C@H]1C(=O)N[C@H](C=O)CCCNC(=N)N)c1ccccc1    YES
 4  Cc1cc(C(=O)Nc2ccc(-c3ccccc3S(N)(=O)=O)cc2)n(-c2cc3ccccc3cc2C2=NCCN2)n1     NO
 5  CC1CCCC(C)N1CCCCN1C(=O)C(c2cccc(C(=N)N)c2)Oc2ccccc21 (configuration not stated)     NO
 6  CC(C)(C)OC(=O)N[C@H](Cc1ccccc1)C(=O)N1CCC[C@@H]1C(=O)N[C@H](CC=O)CCCN=C(N)N     NO
 7  N=C(N)N1CCCC(C[C@H](NC(=O)CN2C(=O)CN(CCCc3ccccc3)C(=O)[C@@H]2Cc2ccc3ccccc3c2)C(=O)c2nccs2)C1 (some centres not stated)     NO
 8  CC(=O)N[C@H](Cc1ccccc1)C(=O)N1CCC[C@H]1C(=O)N[C@H]1CCCN(C(=N)N)C1O (some centres not stated)    YES
 9  Cc1cc(C(=O)Nc2ccc(-c3ccccc3S(N)(=O)=O)cc2)n(-c2cc3ccccc3cc2O)n1     NO
10  CC(C)[C@H](NC(=O)c1cccc(C(=N)N)c1)C(=O)Nc1ccc(-c2ccccc2S(N)(=O)=O)cc1     NO
11  NCc1ccc(C(=O)Nc2ccc(Cl)cc2C(=O)Nc2ccc(Cl)cn2)cc1     NO
12  C[C@H](C(=O)N1CCC[C@H]1C(=O)NC(C=O)CCCNC(=N)N)c1ccccc1 (some centres not stated)    YES
13  CC(=O)N[C@H](Cc1ccccc1)C(=O)N[C@@H](Cc1cccc2ccccc12)C(=O)N[C@H]1CCCN(C(=N)N)C1O (some centres not stated)    YES
14  N=C(N)N1CCCC(C[C@H](NC(=O)CN2C(=O)CN(Cc3ccccc3)C(=O)[C@H]2Cc2ccccc2)C(=O)c2nccs2)C1 (some centres not stated)     NO
15  NCc1ccc(C(=O)N2C[C@@H](n3cc(C4CC4)nn3)C[C@H]2C(=O)NCC(c2ccccc2)c2ccccc2)cc1    YES
16  N=C(N)N1CCC[C@H](NC(=O)Cn2ccc(CCc3ccccc3)c(NS(=O)(=O)c3ccccc3)c2=O)C1O (some centres not stated)    YES

###

pIC50: −log10 of the molar value.
Collected from the literature: pIC50 of various molecules toward Serine protease 1 (Homo sapiens).
READOUT TYPE: pIC50

In [3]: df
Out[3]:
                                   molecule                  target_or_system  readout_type  relation_sign  test_value
0  CC(C)(C)CC(=O)N[C@H](Cc1ccccc1)C(=O)N1CCC[C@H]1C(=O)N[C@@H](CCCNC(=N)N)C(=O)c1nc2ccccc2o1  Serine protease 1 (Homo sapiens)         pIC50              =        8.64
1  CNC(=O)[C@@H]1C[C@H](N2CCc3ccccc3C2)CN1C(=O)c1ccc(CN)c(OC)c1  Serine protease 1 (Homo sapiens)         pIC50              =        6.31
2  N=C(N)NCCC[C@@H](NC(=O)CN1CCN(S(=O)(=O)c2ccc(Cl)cc2)CC1=O)C(=O)c1nccs1  Serine protease 1 (Homo sapiens)         pIC50              =        7.97
3  Cc1cc(C(=O)Nc2ccc(-c3ccccc3S(C)(=O)=O)cc2F)n(-c2cc3ccccc3cc2S(C)(=O)=O)n1  Serine protease 1 (Homo sapiens)         pIC50              <        5.00
4  COc1cc(C(=O)N2C[C@@H](n3cc(C4CC4)nn3)C[C@H]2C(=O)N[C@@H]2C[C@H]2c2ccccc2)ccc1CN  Serine protease 1 (Homo sapiens)         pIC50              =        6.96
5  N=C(N)c1cccc(C(=O)NCC(=O)Nc2ccc(-c3ccccc3S(N)(=O)=O)cc2)c1  Serine protease 1 (Homo sapiens)         pIC50              <        5.00
6  Nc1nccc2cc(CC(NC(=O)CNS(=O)(=O)c3ccc4ccccc4c3)C(=O)N3CCCCC3)ccc12 (centres undefined)  Serine protease 1 (Homo sapiens)         pIC50              =        3.59
7  CCN(CC)C(=O)c1cccc(-c2ccc3c(c2)C[C@H]2[C@H]3[C@@H](CCCCC(=N)N)C(=O)N2C(=O)OCCCc2ccccc2)c1  Serine protease 1 (Homo sapiens)         pIC50              =        6.21
8  N=C(N)N1CCCC(C[C@H](NC(=O)CN2C(=O)CN(CCc3ccccc3)C(=O)[C@H]2Cc2ccccc2)C(=O)c2nccs2)C1 (some centres undefined)  Serine protease 1 (Homo sapiens)         pIC50              =        4.35

###

pIC50: −log10 of the molar value.
Collected from the literature: pIC50 of various molecules toward UniProtKB P07477.
READOUT TYPE: pIC50

In [3]: df
Out[3]:
                                    molecule  relation_sign  test_value
 0  N=C(N)c1cccc(C(=O)N[C@@H](CCC(=O)OCc2ccccc2)C(=O)Nc2ccc(-c3ccccc3S(N)(=O)=O)cc2)c1              =        5.25
 1       COc1cccc(OC(=O)c2ccc(NC(=N)N)cc2)c1              =        7.78
 2  CC[C@H](C(=O)N1CCC[C@H]1C(=O)NC(C=O)CCCNC(=N)N)c1ccccc1 (some centres not stated)              =        6.46
 3  CS(=O)(=O)Nc1c(CCC2CCCCC2)ccn(CC(=O)N[C@H]2CCCN(C(=N)N)C2O)c1=O (some centres not stated)              =        6.59
 4  CNC1=NCCN1Cc1ccc(C(=O)Nc2ccc(Cl)cc2C(=O)Nc2ccc(Cl)cn2)cc1              <        4.96
 5  CN(CCO)Cc1ccc(C(=O)Nc2ccc(Cl)cc2C(=O)Nc2ccc(Cl)cn2)cc1              <        4.96
 6  CC(=C(F)C(=O)Nc1ccc(-c2ccccc2S(N)(=O)=O)cc1Cl)c1cccc(C(=N)N)c1              =        6.73
 7  COC(=O)N[C@H](CC1CCN(C(=N)N)CC1)C(=O)NCC(=O)N[C@H]1CCCN(C(=N)N)C1O (some centres not stated)              =        6.39
 8              O=c1oc(-c2ccccc2I)nc2ccccc12              =        4.82
 9  N=C(N)c1cccc(C(=O)N[C@@H](CCC(=O)O)C(=O)Nc2ccc(-c3ccccc3S(N)(=O)=O)cc2)c1              <        5.00
10  CN(CC(=O)O)Cc1ccc(C(=O)Nc2ccc(Cl)cc2C(=O)Nc2ccc(Cl)cn2)cc1              <        4.96
11  CC(C)(C)OC(=O)N[C@H](C(=O)N1CCC[C@H]1C(=O)NC(C=O)CCCNC(=N)N)c1cccc2ccccc12 (some centres not stated)              =        7.54
12  CNC(=O)[C@H](CC1CCCN(C(=N)N)C1)NC(=O)CN1C(=O)CN(CCCc2ccccc2)C(=O)[C@H]1Cc1ccccc1 (some centres not stated)              =        5.64
13  CC1CCN(C(=O)C(Cc2cccc(C(=N)N)c2)NS(=O)(=O)c2ccc3ccccc3c2)CC1 (configuration not stated)              =        5.72
14  CC(C)c1ccc(CCCN2CC(=O)N(CC(=O)N[C@@H](CC3CCCN(C(=N)N)C3)C(=O)c3nccs3)[C@H](Cc3ccccc3)C2=O)cc1 (some centres not stated)              =        5.15
15  Cc1cc(C(=O)Nc2ccc(-c3ccccc3S(N)(=O)=O)cc2)n(-c2cc3ccccc3cc2C(=N)N)n1              <        4.96
16  CC(C)[C@@H]1C(=O)N(S(C)(=O)=O)[C@@H]2CCN(C(=O)/C=C/CN3CCCCC3)[C@H]21.Cl              <        4.00
